Kindly supply the reported cell count reduction values for the records listed here.
assay: cytotoxicity in IL-1B stimulated HUVEC, primary screen, cytotoxicity control for IL-1B NFkB translocation project, imaging, Hoechst nuclear count, IL-1B stimulus (AID 845); conditions: HUVEC cell count loss, at 2 µM, stronger effect = higher value;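 further: normalized per plate to untreated control cells as the no-loss baseline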
About 390 (0.41%) of roughly 94,000 compounds were called active. The sample holds actives, similar compounds and a random draw of the others, so the mix is not that of the screen.
Kindly answer with a numeric value in %, unit omitted.

Query: For the molecule shown here, O=c1[nH]c(SCc2ccccc2)nnc1-c1ccccc1 , give the reported cell count reduction.
Reply: -19.8

Query: Next: O=C(NNC(=O)c1cccnc1)Nc1ccccc1
Reply: 19.6

Query: Also O=C(Cc1ccc(S(=O)(=O)N2CCCC2)s1)NC1CCCCCC1 , if possible.
Reply: -2.6

Query: Repeat with COc1cc(/C=N/O)cc(Br)c1OCc1cccc(Cl)c1
Reply: -29.3

Query: How about this molecule: CCCC(=O)C1CCN(Cc2ccccc2)CC1
Reply: -26.8

Query: Do the same for O=C(NC(C(=O)NCCN1CCOCC1)C12CC3CC(CC(C3)C1)C2)C1CCCCC1 (stereo not given) please
Reply: 0

Query: Note, next up: C=C(C)c1cccc(C(C)(C)NC(=O)N2CCN(c3ncccn3)CC2)c1
Reply: 22.8

Query: Ok, now CNS(=O)(=O)c1cnccc1N1CCN(c2cccc(C)c2)CC1
Reply: -0.7

Query: Another molecule: N=c1oc2ccccc2cc1C(=O)N/N=C/c1ccccc1
Reply: 23.4

Query: Moving on to the next molecule: Cc1ccc(SCC2=NNC(=O)C2)cc1
Reply: -29.7

Query: // repeat for c1cncc(-c2nnc3n2C2(CCCCC2)Cc2ccccc2-3)c1 and report
Reply: -33.1

Query: Here is the next molecule: Cn1c(=O)c2c(ncn2CC(COCc2ccccc2Cl)OCc2ccccc2Cl)n(C)c1=O (stereo not given)
Reply: 8.7

Query: Could you do the same for Cc1c(Br)cc(C(=O)N2CCCCCC2)c(C)c1C , please?
Reply: -25.3

Query: Query CCCOC(=O)Nc1sc2c(c1C(=O)OCC)CCC2 next
Reply: 11.4

Query: Note, next up: CC(C)(CNC(=O)c1cc(=O)[nH]c2ccccc12)N1CCOCC1
Reply: -104

---

Exercise: for every item that follows, state its recorded cell count reduction.
assay: cytotoxicity in IL-1B stimulated HUVEC, primary screen, cytotoxicity control for IL-1B NFkB translocation project, imaging, Hoechst nuclear count, IL-1B stimulus (AID 845); conditions: HUVEC cell count loss, at 2 µM, stronger effect = higher value;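 further: normalized per plate to untreated control cells as the no-loss baseline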
Among all 94,000 compounds or so, about 390 (0.41%) were called active. Shown is part of a subset that was picked to be rich in actives.
Give a bare numeral; the unit % is implied.

Query: Fill in: cell count reduction of CC1(C)CC(=O)C=C(NCCCNC2CCCCC2)C1 is ___
Reply: -6.9

Query: Please do the same for O=[N+]([O-])c1ccc(Oc2ccc(F)cc2Br)c2ccncc12 as well.
Reply: 5.4

Query: Also COc1ccc(S(=O)(=O)Nc2ccc3c(c2)OCO3)cc1Cl , if possible.
Reply: 81.3

Query: Try Cc1ccccc1CSCCNC(=O)c1ccc(Cl)c(S(=O)(=O)N2CCOCC2)c1 next.
Reply: -18.7

Query: How about this compound: O=C(CSc1nnc(-c2c[nH]c3ccccc23)o1)c1ccccc1
Reply: -13.9
